Each recorded value in this set is attributed to ChEMBL document CHEMBL5385905.

subject.of.test: Tyrosine-protein kinase Fgr (Homo sapiens)
assay.method.text: Inhibition of FGR (unknown origin) at 1 uM relative to control
Measured inhibition values are reported for all entries that follow.
recorded.endpoint: inhibition

1. CCCS(=O)(=O)Nc1ccc(F)c(C(=O)c2c[nH]c3ncc(-c4ccc(Cl)cc4)cc23)c1F | > 80%
2. CCCS(=O)(=O)Nc1ccc(F)c(C(=O)c2c[nH]c3ncc(Cl)cc23)c1F | > 80%
3. CC(C)(C#N)c1cccc(C(=O)Nc2ccc(F)c(C(=O)c3c[nH]c4ncc(Cl)cc34)c2F)c1 | > 80%
4. CCN(C)S(=O)(=O)Nc1ccc(F)c(C(=O)c2c[nH]c3ncc(-c4ccc(Cl)cc4)cc23)c1F | > 80%

* * *

Listed here are compounds together with their documented inhibition.
subject.of.test: RAF proto-oncogene serine/threonine-protein kinase (Homo sapiens) (UniProt P04049)
Sequence (P04049 whole entry): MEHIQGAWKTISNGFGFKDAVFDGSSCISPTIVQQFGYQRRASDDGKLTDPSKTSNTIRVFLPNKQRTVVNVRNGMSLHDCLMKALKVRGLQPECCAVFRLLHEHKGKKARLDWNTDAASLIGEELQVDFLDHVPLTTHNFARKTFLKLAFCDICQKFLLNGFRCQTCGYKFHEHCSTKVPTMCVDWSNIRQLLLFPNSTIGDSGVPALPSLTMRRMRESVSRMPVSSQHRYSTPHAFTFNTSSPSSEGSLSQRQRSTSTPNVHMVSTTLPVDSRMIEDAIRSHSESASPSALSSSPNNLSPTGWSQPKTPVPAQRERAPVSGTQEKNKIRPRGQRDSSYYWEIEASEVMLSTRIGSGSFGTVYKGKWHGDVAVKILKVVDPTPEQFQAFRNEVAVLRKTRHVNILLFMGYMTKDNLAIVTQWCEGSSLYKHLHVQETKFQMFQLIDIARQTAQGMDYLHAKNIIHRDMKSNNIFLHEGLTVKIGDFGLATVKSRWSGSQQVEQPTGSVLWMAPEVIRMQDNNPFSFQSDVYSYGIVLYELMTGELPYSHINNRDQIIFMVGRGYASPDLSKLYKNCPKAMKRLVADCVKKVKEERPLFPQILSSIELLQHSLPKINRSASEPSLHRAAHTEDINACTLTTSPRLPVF
assay.method.text: Inhibition of RAF1 (unknown origin) at 1 uM relative to control
recorded.endpoint: inhibition

1) Cc1ccc(NC(=O)c2cccc(C(C)(C)C#N)c2)cc1Nc1ccc2ncn(C)c(=O)c2c1 | > 80%
2) CCCS(=O)(=O)Nc1ccc(F)c(C(=O)c2c[nH]c3ncc(-c4ccc(Cl)cc4)cc23)c1F [VEMURAFENIB] | > 80%
3) CC(C)(C#N)c1cccc(C(=O)Nc2ccc(F)c(C(=O)c3c[nH]c4ncc(Cl)cc34)c2F)c1 | > 80%
4) CCCS(=O)(=O)Nc1ccc(F)c(C(=O)c2c[nH]c3ncc(Cl)cc23)c1F | > 80%

* * *

subject.of.test: Serine/threonine-protein kinase B-raf (Homo sapiens, UniProt P15056, V600E)
Sequence (P15056 2-766 V600E limits assumed): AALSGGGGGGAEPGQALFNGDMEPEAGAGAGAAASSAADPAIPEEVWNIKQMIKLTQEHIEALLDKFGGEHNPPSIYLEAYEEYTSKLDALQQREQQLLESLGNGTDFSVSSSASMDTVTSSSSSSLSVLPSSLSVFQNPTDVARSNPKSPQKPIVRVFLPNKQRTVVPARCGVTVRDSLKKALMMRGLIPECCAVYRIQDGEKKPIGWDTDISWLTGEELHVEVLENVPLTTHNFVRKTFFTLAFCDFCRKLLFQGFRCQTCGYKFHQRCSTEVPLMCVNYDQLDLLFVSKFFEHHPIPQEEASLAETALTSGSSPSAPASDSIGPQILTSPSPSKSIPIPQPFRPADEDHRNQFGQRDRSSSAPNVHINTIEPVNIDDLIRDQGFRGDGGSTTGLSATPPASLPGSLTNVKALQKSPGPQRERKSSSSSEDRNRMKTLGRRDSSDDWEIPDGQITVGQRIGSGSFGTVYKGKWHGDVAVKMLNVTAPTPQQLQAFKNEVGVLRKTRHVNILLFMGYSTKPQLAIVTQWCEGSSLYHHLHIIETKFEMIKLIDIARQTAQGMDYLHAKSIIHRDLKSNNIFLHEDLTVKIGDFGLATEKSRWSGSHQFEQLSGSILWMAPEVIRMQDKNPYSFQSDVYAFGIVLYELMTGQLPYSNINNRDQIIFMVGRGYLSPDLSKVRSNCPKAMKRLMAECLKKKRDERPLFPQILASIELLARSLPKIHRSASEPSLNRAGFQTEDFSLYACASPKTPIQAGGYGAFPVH
assay.method.text: Inhibition of B-RAF V600E mutant (unknown origin) expressed in Escherichia coli BL21 (DE3)
// reported IC50 for each item listed
recorded.endpoint: IC50 (nM)

1. CCN(C)S(=O)(=O)Nc1ccc(F)c(C(=O)c2c[nH]c3ncc(-c4ccc(Cl)cc4)cc23)c1F | 1410
2. CC(C)(C#N)c1cccc(C(=O)Nc2ccc(F)c(C(=O)c3c[nH]c4ncc(Cl)cc34)c2F)c1 | 48

* * *

subject.of.test: Serine/threonine-protein kinase B-raf (Homo sapiens)
pIC50: −log10 of the molar value.
recorded.endpoint: pIC50

1) CC(C)(C#N)c1cccc(C(=O)Nc2ccc(F)c(C(=O)c3c[nH]c4ncc(Cl)cc34)c2F)c1 | 7.25

* * *

Tested on: A-375
assay.method.text: Inhibition of MAPK pathway in human A-375 cells expressing B-RAF V600E mutant assessed as downregulation of MEK phosphorylation incubated for 1 to 4 hrs by immunoblotting analysis
Type: cell-based
conditions.used: time 1-4 hrs
Active and inactive are the calls of the source. The calls are words filed in the database; no cut-off is given here.
recorded.endpoint: inhibition

1) CCN(C)S(=O)(=O)Nc1ccc(F)c(C(=O)c2c[nH]c3ncc(-c4ccc(Cl)cc4)cc23)c1F | Active
2) CCCS(=O)(=O)Nc1ccc(F)c(C(=O)c2c[nH]c3ncc(-c4ccc(Cl)cc4)cc23)c1F [VEMURAFENIB] | Active
3) Cc1ccc(NC(=O)c2cccc(C(C)(C)C#N)c2)cc1Nc1ccc2ncn(C)c(=O)c2c1 | Active
4) CC(C)(C#N)c1cccc(C(=O)Nc2ccc(F)c(C(=O)c3c[nH]c4ncc(Cl)cc34)c2F)c1 | Active
